The compounds listed here are annotated with their melting point.

{"COMPOUND_STRUCTURE": "CC(C)c1cccc(NC(=N)Nc2cccc(C(C)C)c2)c1", "melting point": "118 to 119 °C"}
{"COMPOUND_STRUCTURE": "CCCOc1ccc2cc(OCc3ccccc3)c(C(=O)O)cc2c1", "melting point": "125 to 128 °C"}

Next item in the queue.
Quick one: give measured melting point for "CC1(C)OC(c2ccc(S(N)(=O)=O)c(F)c2)=C(c2cc(F)cc(F)c2)C1=S"
153 to 154 °C

====

RESULT_TYPE: melting point

Consider the worked cases shown below.
{"MOLECULE": "Cc1c(O)nc2ccc(F)cc2c1C(=O)O", "RECORDED_RESULT": "> 305 °C"}
{"MOLECULE": "CN(C)c1ccc(C2(c3ccc(N(C)C)cc3Cl)OC(=O)c3cc(N(C)C)ccc32)cc1 (centres undefined)", "RECORDED_RESULT": "233 to 234 °C"}
{"MOLECULE": "CC(C)(C)c1ccc(SCCCCCOc2ccc(C3=C(c4ccccc4)CCCc4cc(O)ccc43)cc2)cc1", "RECORDED_RESULT": "139 °C"}

Quick one: give measured melting point for "CC(C)Oc1cc(O)c2c(=O)cc(Sc3ccc(O)cc3)oc2c1"
205 to 207 °C

Quick one: give measured melting point for "CNC(=O)Nc1nc(CC(=O)Nc2cccc(C(F)(F)F)c2)cs1"
200 to 203 °C

Quick one: give measured melting point for "CC(C)(C)N(C(=O)COc1nnc(C(F)(F)F)s1)c1ccc(Cl)cc1"
82 °C

Quick one: give measured melting point for "CC1(C)Oc2ccc(S(=O)(=O)c3cccc(O)c3)cc2[C@@H](Nc2ccnc(Cl)n2)[C@]1(C)O"
> 280 °C

Quick one: give measured melting point for "CC(C)NC(=O)NCCSCc1ccc(CN(C)C)o1"
65 to 67 °C

Quick one: give measured melting point for "O=[N+]([O-])c1ccccc1Sc1ncc[nH]1"
137 to 138 °C

Quick one: give measured melting point for "Cc1oc(-c2ccccc2)nc1COc1ccc(COc2nn(Cc3ccccc3)cc2CC(=O)O)cn1"
87 to 88 °C

====

The compounds listed here are annotated with their melting point.

Consider the worked cases shown below.
{"COMPOUND": "Cc1cc(Cl)cc(C(=O)Nc2cccc(F)c2)n1", "RECORDED_RESULT": "123 °C"}
{"COMPOUND": "CCCOc1cc(OCCC)c2c(C)c(CCCl)c(=O)oc2c1", "RECORDED_RESULT": "99 to 101 °C"}
{"COMPOUND": "CC(=O)OCc1nc([N+](=O)[O-])c(Br)n1C", "RECORDED_RESULT": "92 to 97 °C"}
{"COMPOUND": "CC(C)C(=O)CC(=O)Nc1ccccc1", "RECORDED_RESULT": "46.5 to 58.8 °C"}

Quick one: give measured melting point for "COC(=O)c1cc(C(=O)c2cc(C(=O)OC)c(OC)c([N+](=O)[O-])c2)cc([N+](=O)[O-])c1OC"
96 to 98 °C

Quick one: give measured melting point for "FC(F)(F)Oc1ccc(-c2cncc(Cl)n2)cc1"
58 to 60 °C

Quick one: give measured melting point for COc1ccccc1CN[C@H]1CCCN(CC=Cc2ccccc2)[C@H]1c1ccccc1 (relative stereo)
54 to 58 °C

Quick one: give measured melting point for "C=C(CCCCCCCCCCCCCCCCCC)C(=O)OC"
48 to 50 °C

Quick one: give measured melting point for "COc1ccc(C(=O)Nc2ccc(C3(CNC(=O)C(C)(C)C)CCCC3)cc2)cc1OC"
165 to 167 °C

Quick one: give measured melting point for "CC(C)(C)[N+]([O-])=Cc1c(O)cc(O)cc1O"
190 °C

Quick one: give measured melting point for "C[Si](C)(CCCSCCCNC(=O)n1cc(F)c(=O)[nH]c1=O)c1ccccc1"
51 to 52 °C

Quick one: give measured melting point for CCCCCCCCOC(=O)C(N)C=CCP(=O)(O)O (stereo not given)
161 to 162 °C

Where these numbers come from: a melting point compilation (Tetko et al.; mined from patent text by program, amines drawn as free bases though some values may be those of a salt)
